Values were extracted from patent US7074789B2.

Item-by-item account of IC50
molecular target: Lck (Homo sapiens, UniProt P06239); construct: Kinases are expressed as either kinase domains or full length constructs; made in house; assay: Kinase inhibition assay (33P transfer), Lck; format: biochemical; details: read-out: Lck-1
Sequence (P06239 whole entry, species assumed, the tested form may be a part): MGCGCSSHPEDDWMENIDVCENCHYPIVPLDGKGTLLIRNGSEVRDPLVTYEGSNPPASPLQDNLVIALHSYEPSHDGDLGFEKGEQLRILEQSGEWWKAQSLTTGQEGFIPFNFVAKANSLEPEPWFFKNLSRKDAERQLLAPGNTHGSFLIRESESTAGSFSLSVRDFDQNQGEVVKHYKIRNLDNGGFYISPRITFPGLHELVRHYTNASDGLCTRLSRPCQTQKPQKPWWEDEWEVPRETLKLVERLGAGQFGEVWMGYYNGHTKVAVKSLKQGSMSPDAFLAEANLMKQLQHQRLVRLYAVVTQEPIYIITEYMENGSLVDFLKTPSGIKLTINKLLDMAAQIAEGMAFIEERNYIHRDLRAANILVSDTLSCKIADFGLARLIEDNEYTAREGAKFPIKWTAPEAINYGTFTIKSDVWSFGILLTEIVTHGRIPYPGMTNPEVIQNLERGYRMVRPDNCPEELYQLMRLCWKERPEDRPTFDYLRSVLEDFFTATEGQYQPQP

Study these solved cases before continuing.
[
  {
    "Compound": "COc1cc(Nc2ncnc(Nc3cc(OC)c(OCCN4CCOCC4)c(OC)c3)n2)cc(OC)c1OC",
    "Result": "< 737 nM"
  },
  {
    "Compound": "COc1ccc(Nc2ncnc(N(C)c3cccc(Cl)c3)n2)cc1",
    "Result": "> 13200 nM"
  },
  {
    "Compound": "CCOc1cccc(Nc2ncnc(Nc3ccc(OC)c(OC)c3)n2)c1",
    "Result": "1090 to 6530 nM"
  },
  {
    "Compound": "CN(c1cccc(Cl)c1)c1ncnc(Nc2ccc3[nH]ccc3c2)n1",
    "Result": "1140 to 6840 nM"
  },
  {
    "Compound": "COc1cc(Nc2ncnc(-n3c(N[C@@H](C)c4ccccc4)nc4ccccc43)n2)cc(OC)c1OC",
    "Result": "< 804 nM"
  }
]

Query IC50 on Lck (Homo sapiens, UniProt P06239) for COc1cc(Nc2ncnc(-n3c(NCc4cccc(C)c4)nc4ccccc43)n2)cc(OC)c1OC
< 804 nM

Continue with COc1cc(Nc2ncnc(N(C)c3cccc(Cl)c3)n2)cc(OC)c1
1080 to 6450 nM

Continue with COc1ccc(-c2cc(Nc3ncnc(Nc4ccc(CC(N)=O)cc4)n3)[nH]n2)cc1
< 961 nM

Continue with COc1cc(Nc2ncnc(N3c4ccccc4CCC3C)n2)cc(OC)c1OC (stereo not shown)
< 982 nM

Continue with CN(c1cccc(Cl)c1)c1ncnc(N(C)c2cccc(Cl)c2)n1
> 12500 nM

----------
biological target: IGFR-1 (Homo sapiens); construct: Kinases are expressed as either kinase domains or full length constructs; made in house; test: Kinase inhibition assay (33P transfer), IGFR-1; assay type: biochemical; details: Table 2, kinase inhibition class
Sequence (P08069 31-1367): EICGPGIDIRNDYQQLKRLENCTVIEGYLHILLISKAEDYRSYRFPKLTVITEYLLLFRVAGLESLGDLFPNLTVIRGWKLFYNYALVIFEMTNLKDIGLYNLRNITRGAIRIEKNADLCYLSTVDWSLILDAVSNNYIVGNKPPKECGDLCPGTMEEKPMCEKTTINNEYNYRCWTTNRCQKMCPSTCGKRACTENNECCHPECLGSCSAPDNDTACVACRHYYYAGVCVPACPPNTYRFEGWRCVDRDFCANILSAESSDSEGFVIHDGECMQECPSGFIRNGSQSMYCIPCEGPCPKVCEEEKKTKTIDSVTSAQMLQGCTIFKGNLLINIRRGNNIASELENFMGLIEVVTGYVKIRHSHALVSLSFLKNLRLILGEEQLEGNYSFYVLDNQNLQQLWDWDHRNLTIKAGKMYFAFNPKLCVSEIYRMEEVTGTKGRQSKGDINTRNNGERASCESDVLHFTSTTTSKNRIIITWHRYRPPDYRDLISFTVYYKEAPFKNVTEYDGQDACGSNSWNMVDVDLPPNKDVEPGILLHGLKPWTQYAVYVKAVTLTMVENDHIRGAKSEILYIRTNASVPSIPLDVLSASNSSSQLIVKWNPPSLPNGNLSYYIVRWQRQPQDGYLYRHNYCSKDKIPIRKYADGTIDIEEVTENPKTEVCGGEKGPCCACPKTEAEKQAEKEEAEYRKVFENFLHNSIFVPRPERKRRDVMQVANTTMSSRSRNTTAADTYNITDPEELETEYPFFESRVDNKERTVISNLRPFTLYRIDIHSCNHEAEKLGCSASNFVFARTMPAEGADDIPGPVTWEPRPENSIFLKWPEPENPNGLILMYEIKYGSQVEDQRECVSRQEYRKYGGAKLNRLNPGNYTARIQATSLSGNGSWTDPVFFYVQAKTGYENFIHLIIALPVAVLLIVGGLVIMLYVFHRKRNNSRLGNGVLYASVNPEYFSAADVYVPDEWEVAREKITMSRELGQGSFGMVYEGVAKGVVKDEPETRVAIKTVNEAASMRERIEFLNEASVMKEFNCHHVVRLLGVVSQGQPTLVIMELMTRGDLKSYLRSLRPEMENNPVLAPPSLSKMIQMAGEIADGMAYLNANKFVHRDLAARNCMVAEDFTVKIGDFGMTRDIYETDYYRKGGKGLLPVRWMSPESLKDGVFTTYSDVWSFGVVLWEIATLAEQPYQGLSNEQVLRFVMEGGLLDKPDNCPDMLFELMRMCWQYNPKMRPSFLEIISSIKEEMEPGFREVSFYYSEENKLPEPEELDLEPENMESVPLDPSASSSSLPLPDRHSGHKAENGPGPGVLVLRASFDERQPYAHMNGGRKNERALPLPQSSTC
pIC50: −log10 of the molar value.
Item-by-item account of pIC50

Study these solved cases before continuing.
[
  {
    "Molecule": "COc1cc(Nc2ncnc(N3CCc4cc([N+](=O)[O-])ccc43)n2)cc(OC)c1OC [Compound 187]",
    "Measurement Target": "IGFR-1 (Homo sapiens)",
    "pIC50": "< 4.97"
  },
  {
    "Molecule": "COc1cc(Nc2ncnc(-n3c(Nc4ccc(Cl)cc4)nc4ccccc43)n2)cc(OC)c1OC [Compound 375]",
    "Measurement Target": "IGFR-1 (Homo sapiens)",
    "pIC50": "< 5.05"
  },
  {
    "Molecule": "OCCCNc1cc(-c2ncnc(Nc3cccc(OC(F)(F)C(F)F)c3)n2)ccn1 [Compound 372]",
    "Measurement Target": "IGFR-1 (Homo sapiens)",
    "pIC50": "< 4.99"
  },
  {
    "Molecule": "COc1cc(Nc2ncnc(Nc3ccc(Br)cc3)n2)cc(OC)c1OC [Compound 82]",
    "Measurement Target": "IGFR-1 (Homo sapiens)",
    "pIC50": "5.26 to 6.03"
  },
  {
    "Molecule": "COc1cc(Nc2ncnc(N3CCCC3)n2)cc(OC)c1OC [Compound 181]",
    "Measurement Target": "IGFR-1 (Homo sapiens)",
    "pIC50": "< 4.87"
  },
  {
    "Molecule": "COc1cc(Nc2ncnc(Nc3ccccc3)n2)cc(OC)c1OC [Compound 91]",
    "Measurement Target": "IGFR-1 (Homo sapiens)",
    "pIC50": "5.17 to 5.95"
  }
]

Recorded pIC50 for COc1cc(Nc2ncnc(-n3c(NCc4ccccc4)nc4ccccc43)n2)cc(OC)c1OC [Compound 371] , please?
< 5.03

Continue with COc1cc(Nc2ncnc(N3CCN(C)CC3)n2)cc(OC)c1OC [Compound 212]
< 4.90

Continue with COc1cc(Nc2ncnc(Nc3ccc(NCc4ccccc4)cc3)n2)cc(OC)c1OC [Compound 93]
< 5.01

Continue with COc1cc(Nc2ncnc(N3CCCc4ccccc43)n2)cc(OC)c1OC [Compound 609]
< 4.94

Continue with COc1cc(Nc2ncnc(Nc3cc(OC)c(OC)c(OC)c3)n2)cc(OC)c1 [Compound 86]
> 6.01

Continue with Oc1ccc(Nc2ncnc(-c3ccccc3)n2)cc1 [Compound 11]
< 4.77

Continue with Cc1cccc(Nc2ncnc(Nc3ccc4[nH]ncc4c3)n2)c1 [Compound 120]
> 5.90
